- measured.target: T1, human CCR8 (human, UniProt P51685 1-355)
- T1 construct: whole, on cells; also called hCCR8
- T1 sequence (P51685 whole entry): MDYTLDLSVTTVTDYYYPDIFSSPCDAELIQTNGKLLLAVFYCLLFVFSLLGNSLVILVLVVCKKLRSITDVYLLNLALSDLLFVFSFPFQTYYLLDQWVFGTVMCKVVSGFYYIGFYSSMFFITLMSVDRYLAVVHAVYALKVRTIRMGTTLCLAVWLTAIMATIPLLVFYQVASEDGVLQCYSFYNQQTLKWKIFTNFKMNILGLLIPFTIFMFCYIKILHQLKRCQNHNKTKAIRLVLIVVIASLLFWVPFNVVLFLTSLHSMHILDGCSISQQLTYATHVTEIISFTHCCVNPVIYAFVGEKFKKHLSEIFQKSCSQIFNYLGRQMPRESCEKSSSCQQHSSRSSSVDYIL
- run.description: FACS, competition with AF647-human CCL1 on CHO-K1-human CCR8 cells
Below, each entry is listed alongside its reported pIC50.
// field semantics: pIC50 = negative decimal log of concentration (mol/L)

* Hu348-2 (antibody, V domains shown, humanized IgG) VH: EVQLVESGGGLVQPGGSLKLSCATSGFSFSNYRMHWLRQASGKGLEWVGVITVKSDNYGANYAASVKGRFTISRDDSKSSVYLQMNSLKTEDTAVYYCSSLGRVAYWGQGTLVTVSS VL: DIQMTQSPSSVSASVGDRVTITCKASQNVDTNVVWYQQKPGKAPKALIYSASSRYSGVPDRFSGSGSGTDFTLTISSLQPEDFATYYCQQHNSFPLTFGQGTKLEIK | 9.67
* Hu348-6 (antibody, V domains shown, humanized IgG) VH: EVQLVESGGGLVQPGGSLKLSCATSGFSFSNYRMHWVRQASGKGLEWVGVITVKSDNYGANYAASVKGRFTISRDDSKSSVYLQMNSLKTEDTAVYYCSSLGRVAYWGQGTLVTVSS VL: DIQMTQSPSSVSASVGDRVTITCKASQNVDTNVVWYQQKPGQSPKALIYSASSRYSGVPDRFSGSGSGTDFTLTISSLQPEDFATYYCQQHNSFPLTFGQGTKLEIK | 8.74
* Hu348-1 (antibody, V domains shown, humanized IgG) VH: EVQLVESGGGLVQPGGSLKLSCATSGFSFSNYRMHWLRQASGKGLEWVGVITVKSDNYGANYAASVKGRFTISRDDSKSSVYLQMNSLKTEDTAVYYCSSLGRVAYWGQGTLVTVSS VL: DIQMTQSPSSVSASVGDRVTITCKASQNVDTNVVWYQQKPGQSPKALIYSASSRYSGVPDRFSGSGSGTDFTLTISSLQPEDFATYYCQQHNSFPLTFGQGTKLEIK | 9.64
* Hu348-3 (antibody, V domains shown, humanized IgG) VH: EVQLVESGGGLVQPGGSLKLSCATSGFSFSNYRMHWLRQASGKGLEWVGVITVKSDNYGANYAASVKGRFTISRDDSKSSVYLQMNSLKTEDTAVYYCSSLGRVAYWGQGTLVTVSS VL: DIQMTQSPSSVSASVGDRVTITCKASQNVDTNVVWYQQKPGQSPKLLIYSASSRYSGVPDRFSGSGSGTDFTLTISSLQPEDFATYYCQQHNSFPLTFGQGTKLEIK | 9.44

Please turn your attention to the following entry.
QUERY: Reported pIC50, binder Hu348-8 (antibody, V domains shown, humanized IgG) VH: EVQLVESGGGLVQPGGSLKLSCATSGFSFSNYRMHWLRQASGKGLEWVGVITVKSDNYGANYAASVKGRFTISRDDSKNTAYLQMNSLKTEDTAVYYCSSLGRVAYWGQGTLVTVSS VL: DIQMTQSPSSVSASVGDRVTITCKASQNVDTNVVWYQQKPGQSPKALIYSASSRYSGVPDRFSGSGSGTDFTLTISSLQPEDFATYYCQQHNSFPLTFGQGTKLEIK : ____
RESULT: 9.45
